- Tested on: E. coli ATCC25922
- Type: cell-based, Escherichia coli
- Cond: ATCC25922, 16 h
Non-standard residues stand in square brackets, D forms with d. Residues, ends and D or L forms follow the SMILES beside them.
Attribute Measured: MIC after temperature treatment, 100 °C (µM)
Quick note: give the figure in µM, leave out the unit.

Here are 3 compounds together with their reported answers.
Compound	Value Unit	Recorded Number
CC(C)C[C@H](NC(=O)[C@H](CC(C)C)NC(=O)[C@H](CCCNC(=N)N)NC(=O)[C@H](CC(C)C)NC(=O)[C@H](CC(C)C)NC(=O)[C@H](CCCNC(=N)N)NC(=O)[C@H](CCCNC(=N)N)NC(=O)CNC(=O)[C@H]1CCCN1C(=O)[C@H](CCCNC(=N)N)NC(=O)[C@H](CCCNC(=N)N)NC(=O)[C@H](CC(C)C)NC(=O)[C@H](CC(C)C)NC(=O)[C@H](CCCNC(=N)N)NC(=O)[C@H](CC(C)C)NC(=O)[C@@H](N)CC(C)C)C(N)=O [LRpG] (H-LLRLLRR[dP]GRRLLRLL-NH2)	µM	2
N=C(N)NCCC[C@H](NC(=O)CNC(=O)[C@H]1CCCN1C(=O)[C@H](CCCNC(=N)N)NC(=O)[C@H](CCCNC(=N)N)NC(=O)[C@H](Cc1ccccc1)NC(=O)[C@H](Cc1ccccc1)NC(=O)[C@H](CCCNC(=N)N)NC(=O)[C@H](Cc1ccccc1)NC(=O)[C@@H](N)Cc1ccccc1)C(=O)N[C@@H](CCCNC(=N)N)C(=O)N[C@@H](Cc1ccccc1)C(=O)N[C@@H](Cc1ccccc1)C(=O)N[C@@H](CCCNC(=N)N)C(=O)N[C@@H](Cc1ccccc1)C(=O)N[C@@H](Cc1ccccc1)C(N)=O [FRpG] (H-FFRFFRR[dP]GRRFFRFF-NH2)	µM	8
CC(C)C[C@H](NC(=O)CN)C(=O)N[C@@H](CCCNC(=N)N)C(=O)N[C@@H](CC(C)C)C(=O)N[C@@H](CC(C)C)C(=O)N[C@@H](CCCNC(=N)N)C(=O)N[C@@H](CCCNC(=N)N)C(=O)N[C@@H](CC(C)C)C(=O)N[C@@H](CC(C)C)C(=O)N[C@@H](CCCNC(=N)N)C(=O)N[C@@H](CCCNC(=N)N)C(=O)N[C@@H](CC(C)C)C(=O)N[C@@H](CC(C)C)C(=O)N[C@@H](CCCNC(=N)N)C(=O)N[C@@H](CC(C)C)C(=O)N1CCC[C@@H]1C(N)=O [LRα] (H-GLRLLRRLLRRLLRL[dP]-NH2)	µM	2

Q: Give a short answer stating reported MIC after temperature treatment, 100 °C for CC[C@H](C)[C@H](N)C(=O)N[C@H](C(=O)N[C@@H](CCCNC(=N)N)C(=O)N[C@H](C(=O)N[C@H](C(=O)N[C@@H](CCCNC(=N)N)C(=O)N[C@@H](CCCNC(=N)N)C(=O)N1CCC[C@@H]1C(=O)NCC(=O)N[C@@H](CCCNC(=N)N)C(=O)N[C@@H](CCCNC(=N)N)C(=O)N[C@H](C(=O)N[C@H](C(=O)N[C@@H](CCCNC(=N)N)C(=O)N[C@H](C(=O)N[C@H](C(N)=O)[C@@H](C)CC)[C@@H](C)CC)[C@@H](C)CC)[C@@H](C)CC)[C@@H](C)CC)[C@@H](C)CC)[C@@H](C)CC [IRpG] (H-IIRIIRR[dP]GRRIIRII-NH2) .
Ans: 4
